Biological target: T1, human ACTH 1-39 (human)
T1 peptide: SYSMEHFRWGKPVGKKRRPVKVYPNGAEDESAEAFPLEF
Experiment: cell-based or functional assay
Below is a list of entries, each paired with its recorded MC4R IC50 value.
Form entry: value (nM) — number only.

Worked examples, 2 binders total:
binder: Ab6 (antibody, human IgG1, kappa, N297A, V domains shown, rabbit/human chimeric antibody, made in HEK-293) VH: QSVEESGGRLVTPGTPLTLTCTVSGFSLTDYAMSWVRQAPGEGLEWIGIISDSGSTYYASWAKGRFTFSKTSTTVDLRITSPTTEDTATYFCAREPEYGYDEYGDWVSDLWGPGTLVTVSS VL: DIVMTQTPASVEAAVGGAVTIKCQATQSIGNNLAWYQQKPGQPPKLLIYRASTLASGVPSRFKGSGSGTEFTLTISDLECADAATYYCQSYYYSSSITYHNAFGGGTEVVVKR
units: nM
MC4R IC50: 55.2
//
binder: Ab10 (antibody, human IgG1, kappa, N297A, V domains shown, rabbit/human chimeric antibody, made in HEK-293) VH: QSVEESGGRLVTPGTPLTLTCTVSGFSLSSADMIWVRQAPGKGLESIGMIYDDGDTYYATWAKGRFTISKTSTTVDLKIISPTTEDTATYFCVKGVSSVWGQGTLVTVSS VL: DVVMTQTPASVEAAVGGTVTINCQASENIYRSLAWYQQKPGQPPKLLIYSASTLASGVPSRFKGSGSGTEFTLTISDLECADAATYYCQSYDGSSSSSYGVGFGGGTEVVVKR
units: nM
MC4R IC50: 66.3

Consider the record given below.
Q) Input Ab3 (antibody, human IgG1, kappa, N297A, V domains shown, rabbit/human chimeric antibody, made in HEK-293) VH: QSLEESGGRLVTPGTPLTLTCTVSGSSLSNFDMIWVRQAPGKGLESIGIIYDFGSTYYASWAKGRFTISRTSSTTVDLKIISPTIEDTATYFCVKGVSNIWGQGTLVTVSS VL: DVVMTQTPASVEAAVGGTVTIKCQASEDISSNLAWYQQKLGQPPKLLIYSASTLASGVPSRFKGSGSGTEFTLAISDLECADAATYYCQSYDGSSSSSYGIGFGGGTEVVVKR , output reported MC4R IC50.
A) 54.2
